target: T1, human αvβ6 integrin on CHOK1 stable cells (human, UniProt P06756 31-1048; P18564 22-788); assay: cell-based ELISA (CELISA), CHOK1 cells expressing the integrin
T1 construct: whole, on cells; Stably expressed on CHOK1 cells; also called hαvβ6; CHOK1-human αvβ6
Measured quantity: EC50 (nM)
Numbers only; they are read as nM.

Ab-29 (antibody, V domains shown) VH: ELQLQESGPGLVKPSETLSLTCTVSGGSISSNSYYWGWIRQPPGKGLEWIGSIYYSGSTYYNPSLKSRVTISVDTSKNQFSLKLSSVTAADTAVYYCARVRRVAGRGDSYYYYYGMDVWGQGTTVTVSS VL: DIQMTQSPSSVSASVGDRVTITCRASQGISRWLAWYQQKPGKAPKLLIYAASSLQSGVPSRFSGSGSGTDFTLTISSLQPEDFATYYCQQAISHPWTFGGGTKVEIK yielded EC50 of 0.861
